Molecular target: C9 Fab (rabbit)
Sequence (heavy, as listed by the source, chain 1 of 2): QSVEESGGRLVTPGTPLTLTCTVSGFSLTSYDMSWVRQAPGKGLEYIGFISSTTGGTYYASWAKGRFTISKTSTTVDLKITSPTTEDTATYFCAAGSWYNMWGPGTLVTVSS
Sequence (light, as listed by the source, chain 2 of 2): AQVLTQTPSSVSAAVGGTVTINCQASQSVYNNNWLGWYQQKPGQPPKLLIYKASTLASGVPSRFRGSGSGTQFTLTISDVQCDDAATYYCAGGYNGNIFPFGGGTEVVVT
Assay: SPR; Biacore T200; each Fab immobilised on a CM5 chip by amine coupling; increasing concentrations of free peptide injected; running buffer PBS with 0.005% Tween 20; global fit, steady-state analysis where dissociation was fast
Where no end group is shown, it is not given here. Me3 = trimethyl-lysine

# BINDER, UNIT TEXT, Kd
records = [
    ("NPIFEKFGK(Me3)GGTYP [Methylated MAP3K2 peptide, …(me3)GGTYP]", "nM", 14),
]
